Each recorded value in this set is attributed to patent US8569378B2.

For each record, write down the corresponding EC50.
Test system: p27 protein
Run description: Quantification of p27 protein by ELISA (p27 protein-inducing activity, EC50)
Assay type: cell-based, human
Condition description: NCI-H460 cells, 48 hours, p27 sandwich ELISA; Table 1-1
Numbers only, in nM.

Take a look at these entries with their results.
Compound: Cc1c(Cc2cccc(NS(=O)(=O)N(C)C)c2)c(=O)oc2cc(OC(=O)N(C)C)c(Cl)cc12 [Compound 1j-1-3-3]
Experimental target: p27 protein
Unit tag: nM
Experimental result: 74
//
Compound: CNS(=O)(=O)Nc1cccc(Cc2c(C)c3ccc(OC(=O)N(C)C)cc3oc2=O)c1F [Compound 1j-1-4-2]
Experimental target: p27 protein
Unit tag: nM
Experimental result: 78

Consider the record given below.
## Task Return the recorded EC50 value; entry: Cc1c(Cc2cccc(NS(N)(=O)=O)c2)c(=O)oc2cc(OC(=O)N(C)C)c(I)cc12 [Compound 1j-1-7-1]
## Result 160
